Reported IC50 is given for each of the following compounds.
molecular target: ATM protein (Homo sapiens, UniProt Q13315); construct: ATM protein was immunoprecipitated from HeLa cell nuclear extract; endogenous in cells; test: ATM inhibition assay (immunoprecipitated ATM, GSTp53N66 substrate)
Sequence (Q13315 whole entry): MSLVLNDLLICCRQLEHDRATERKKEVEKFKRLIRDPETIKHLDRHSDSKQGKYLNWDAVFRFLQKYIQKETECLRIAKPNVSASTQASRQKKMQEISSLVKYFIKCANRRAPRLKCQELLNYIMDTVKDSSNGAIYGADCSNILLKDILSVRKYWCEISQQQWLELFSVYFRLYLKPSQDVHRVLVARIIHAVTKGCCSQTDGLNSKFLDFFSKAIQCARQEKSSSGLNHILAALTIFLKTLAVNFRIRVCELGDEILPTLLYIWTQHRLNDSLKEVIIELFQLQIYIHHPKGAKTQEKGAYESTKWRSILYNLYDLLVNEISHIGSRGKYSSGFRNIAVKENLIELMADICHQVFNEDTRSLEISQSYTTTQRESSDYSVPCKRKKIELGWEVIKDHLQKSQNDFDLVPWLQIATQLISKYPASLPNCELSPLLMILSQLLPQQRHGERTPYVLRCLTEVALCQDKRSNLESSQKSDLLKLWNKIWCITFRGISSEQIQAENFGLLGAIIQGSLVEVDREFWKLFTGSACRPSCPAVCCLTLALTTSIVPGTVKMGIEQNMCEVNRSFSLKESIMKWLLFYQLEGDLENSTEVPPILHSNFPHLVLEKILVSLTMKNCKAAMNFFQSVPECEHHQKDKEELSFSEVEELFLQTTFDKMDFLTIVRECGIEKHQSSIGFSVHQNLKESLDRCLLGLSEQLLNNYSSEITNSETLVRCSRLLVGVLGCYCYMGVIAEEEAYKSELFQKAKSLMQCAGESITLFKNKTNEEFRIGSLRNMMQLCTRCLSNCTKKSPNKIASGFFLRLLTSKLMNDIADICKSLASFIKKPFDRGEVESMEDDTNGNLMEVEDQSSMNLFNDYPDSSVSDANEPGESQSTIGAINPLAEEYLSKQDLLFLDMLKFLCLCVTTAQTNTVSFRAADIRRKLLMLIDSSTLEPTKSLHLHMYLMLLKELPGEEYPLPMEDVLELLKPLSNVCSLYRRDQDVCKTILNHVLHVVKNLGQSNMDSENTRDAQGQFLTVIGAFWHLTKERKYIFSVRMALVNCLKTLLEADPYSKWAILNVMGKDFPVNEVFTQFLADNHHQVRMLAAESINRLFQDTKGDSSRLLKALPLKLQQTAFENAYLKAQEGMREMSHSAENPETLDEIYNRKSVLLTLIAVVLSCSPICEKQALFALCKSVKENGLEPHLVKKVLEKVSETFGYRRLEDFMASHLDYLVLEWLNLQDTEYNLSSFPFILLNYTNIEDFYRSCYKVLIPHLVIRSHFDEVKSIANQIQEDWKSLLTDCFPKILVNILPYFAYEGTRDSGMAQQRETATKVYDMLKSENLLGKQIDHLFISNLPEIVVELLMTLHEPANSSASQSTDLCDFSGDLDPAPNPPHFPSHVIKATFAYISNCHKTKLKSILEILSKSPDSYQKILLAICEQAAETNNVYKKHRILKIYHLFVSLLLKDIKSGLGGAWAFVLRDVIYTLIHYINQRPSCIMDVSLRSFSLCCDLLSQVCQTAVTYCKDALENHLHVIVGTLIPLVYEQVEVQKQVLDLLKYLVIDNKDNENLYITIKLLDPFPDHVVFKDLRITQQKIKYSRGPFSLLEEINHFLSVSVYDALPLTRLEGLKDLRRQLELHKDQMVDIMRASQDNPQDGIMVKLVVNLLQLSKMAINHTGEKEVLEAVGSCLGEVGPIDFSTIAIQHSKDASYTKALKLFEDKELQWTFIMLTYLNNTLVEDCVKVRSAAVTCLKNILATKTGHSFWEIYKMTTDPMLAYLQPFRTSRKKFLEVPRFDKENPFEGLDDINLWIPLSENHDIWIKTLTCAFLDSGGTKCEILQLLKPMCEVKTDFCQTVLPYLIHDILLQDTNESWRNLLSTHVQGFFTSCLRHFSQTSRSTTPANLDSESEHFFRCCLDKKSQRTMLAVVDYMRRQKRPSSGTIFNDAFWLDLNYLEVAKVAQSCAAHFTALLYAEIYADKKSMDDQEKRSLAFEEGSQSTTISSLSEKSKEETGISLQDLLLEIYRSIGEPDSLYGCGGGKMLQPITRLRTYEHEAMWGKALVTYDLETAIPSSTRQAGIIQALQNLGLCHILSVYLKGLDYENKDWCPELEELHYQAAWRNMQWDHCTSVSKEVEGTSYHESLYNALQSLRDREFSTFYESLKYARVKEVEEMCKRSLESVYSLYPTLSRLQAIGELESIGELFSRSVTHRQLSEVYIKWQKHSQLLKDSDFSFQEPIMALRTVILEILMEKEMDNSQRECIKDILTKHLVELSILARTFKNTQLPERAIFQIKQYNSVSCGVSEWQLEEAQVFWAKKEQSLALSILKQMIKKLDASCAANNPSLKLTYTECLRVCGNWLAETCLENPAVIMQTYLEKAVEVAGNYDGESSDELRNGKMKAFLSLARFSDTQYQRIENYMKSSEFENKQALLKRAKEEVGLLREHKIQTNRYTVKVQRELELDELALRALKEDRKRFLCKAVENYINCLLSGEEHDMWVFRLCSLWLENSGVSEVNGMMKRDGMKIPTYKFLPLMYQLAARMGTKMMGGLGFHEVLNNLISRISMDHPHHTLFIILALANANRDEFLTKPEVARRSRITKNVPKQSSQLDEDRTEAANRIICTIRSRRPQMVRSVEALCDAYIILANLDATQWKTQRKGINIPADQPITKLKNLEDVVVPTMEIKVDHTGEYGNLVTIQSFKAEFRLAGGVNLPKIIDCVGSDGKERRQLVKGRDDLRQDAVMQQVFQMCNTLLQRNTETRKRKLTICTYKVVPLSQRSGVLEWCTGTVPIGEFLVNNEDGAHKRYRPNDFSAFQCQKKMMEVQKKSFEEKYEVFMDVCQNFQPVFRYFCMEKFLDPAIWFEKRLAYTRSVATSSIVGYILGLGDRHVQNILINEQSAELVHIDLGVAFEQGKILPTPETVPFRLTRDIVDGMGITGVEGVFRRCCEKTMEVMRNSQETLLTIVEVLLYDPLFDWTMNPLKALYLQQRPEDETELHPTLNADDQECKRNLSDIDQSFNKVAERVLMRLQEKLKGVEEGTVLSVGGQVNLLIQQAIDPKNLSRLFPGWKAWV

Look up IC50: O=C1c2ccccc2C(=O)N1CCCOc1ccc2c(=O)cc(N3CCOCC3)oc2c1 [Compound 422]
> 100 µM

====

test system: PI 3-kinase (p110α/p85α); assay: PI 3-kinase inhibition assay; format: biochemical; details: selectivity ratio from the IC50s for PI 3-kinase and DNA-PK
reported.property: Δ(DNA-PK/PI 3-K)

O=c1cc(N2CCSCC2)oc2c1ccc1ccccc12 [Compound 296]: 5
O=c1cc(N2CCOCC2)oc2c3c(ccc12)CCCC3 [Compound 297]: 36
O=c1cc(-c2ccc(F)cc2)oc(N2CCOCC2)c1 [Compound 292]: 52

(1) O=c1cc(N2CCOCC2)oc2ccc3ccccc3c12 [Compound 310, 2-morpholin-4-yl-benzo[f]chromen-4-one]
(2) COc1ccc(-c2cc(=O)cc(N3CCOCC3)o2)cc1 [Compound 288]
Hi, I'm comparing two records. Which one has the lower Δ(DNA-PK/PI 3-K), 1 or 2 ? Lab log: write the label of the selected item as the result.
2
